test system: SF-539 CNS; test: NCI tumour cell line growth inhibition, 48 h
VALUE TYPE: TGI

A selection of reference data follows.
COMPOUND	TGI
C=CC[P+](c1ccccc1)(c1ccccc1)c1ccccc1	> 100 µM
Fc1ccc(OCc2nc3cc(C(F)(F)F)ccc3nc2-c2ccccc2)cc1	> 100 µM
CCOC(=O)C1=C(C)NC2SC(=O)/C(=C\c3ccccc3O)N2C1c1ccccc1 (configuration not stated)	> 100 µM
CN(C)c1nc2n(CCO)c(-c3ccccc3)c(-c3ccccc3)nc-2c(=O)n1	> 100 µM

Ask: What value of TGI on SF-539 CNS does Cc1ccc(/C(=C\C(=O)C(=O)NC23CC4CC(CC(C4)C2)C3)Sc2ccccc2)cc1 have?
Reply: > 10 µM

Ask: Lab note: need TGI with SF-539 CNS for entry Cc1cccc(C(=O)/C=C/SC(=NC#N)SCc2ccccc2)c1 , please look it up.
Reply: 31.7 µM

Ask: GET /values?readout=TGI&system=SF-539 CNS&item= C=CC(C)(O)/C=C/C=C(\C)C(CC1OC1(C)C)OC(=O)/C(C)=C\C (configuration not stated)
Reply: > 100 µM
